Cited source: patent US6972319B1

Molecular target: PACAP-R2 (Homo sapiens, UniProt P32241)
Construct: expressed in transfected cells; host or cells: CHO cells
Sequence (P32241 31-457): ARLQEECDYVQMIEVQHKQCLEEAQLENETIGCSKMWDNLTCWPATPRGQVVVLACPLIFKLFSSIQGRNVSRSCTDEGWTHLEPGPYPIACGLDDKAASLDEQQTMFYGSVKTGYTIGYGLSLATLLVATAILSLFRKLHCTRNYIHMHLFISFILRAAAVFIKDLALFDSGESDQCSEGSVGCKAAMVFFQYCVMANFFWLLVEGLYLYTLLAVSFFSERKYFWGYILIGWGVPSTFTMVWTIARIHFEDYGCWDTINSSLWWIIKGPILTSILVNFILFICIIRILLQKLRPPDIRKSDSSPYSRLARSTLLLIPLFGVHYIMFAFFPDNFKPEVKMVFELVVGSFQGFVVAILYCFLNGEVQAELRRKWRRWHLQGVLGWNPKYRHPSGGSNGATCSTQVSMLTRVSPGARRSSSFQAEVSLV
Test: Cyclic AMP SPA on CHO cells transfected with PACAP-R2
Assay type: cell-based
Conditions: R2 EC50, cAMP SPA, concentration at which 50% of maximum PACAP27 activity is achieved, NA = no detectable activities
No end group written: not given here.
parameter_measured: EC50 (nM)
Supply the numeric figure in nM, leaving out any unit text.

Task: Input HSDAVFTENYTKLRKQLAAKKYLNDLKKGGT [Peptide R3P3] , output reported EC50.
Output: 100
